Test system: RPMI-8226 leukemia
measurement_protocol: NCI tumour cell line growth inhibition, 48 h; in the data active = GI50 below about 0.43 µM; inactive = the rest
Outcome (select one): t = active, f = inactive

CCCc1ccc(S(=O)(=O)N[C@H]2CC[C@H]3[C@@H]4CCc5cc(O)ccc5[C@H]4CC[C@]23C)cc1: f
C=C1C[C@@H]2C/C=C/C(=O)C/C(C)=C\C=C\C(=O)O[C@H](C=O)C/C(C)=C/[C@H](C1)O2: t
CCCCCCCCCNCCCCCCCCC: f
Cn1ccc2c(NCCN)c3c(c(NCCN)c21)C(=O)c1ccccc1C3=O: f
N#CC1=C(N)OC2=C(COc3ccc(F)cc32)C1c1ccc(Cl)cc1 (stereo not drawn): f
CC(C)(C)C(=O)Nc1ccccc1I(=O)=O: f

Query block: For CCC1=C[C@@H]2CN(C1)Cc1c([nH]c3ccccc13)[C@@](C(=O)OC)(c1cc3c(cc1OC)N(C=O)[C@H]1[C@@](O)(C(=O)OC)[C@H](OC(C)=O)[C@]4(CC)[C@@H]5C[C@@H]5CN5CC[C@]31[C@@H]54)C2 , what call appears in the results of this test?
Result block: t
